MIC tested on S. pneumoniae MMX 3031 cMefA: recorded values

# compound, reported-metric, value-measured
rows = [
    ("CSC1O[C@H]([C@H](NC(=O)[C@H]2NC[C@@H]3C[C@@H](c4cccc(F)c4)CCO[C@H]32)[C@H](C)Cl)C(O)[C@@H](O)[C@H]1O (stereo partly drawn) [FSA-511077]", "MIC", "≤ 0.06 µg/mL"),
    ("C=CC1=CCO[C@@H]2[C@H](CN[C@@H]2C(=O)N[C@H]([C@H](C)Cl)[C@H]2OC(SC)[C@H](O)[C@H](O)C2O)C1 (stereo partly drawn) [FSA-507041]", "MIC", "≤ 0.03 µg/mL"),
]

Below: the item to evaluate.
Which MIC reading was recorded for the compound COc1ccc([C@H]2CCO[C@@H]3[C@H](CN[C@@H]3C(=O)N[C@H]([C@H](C)Cl)[C@H]3OC(SC)[C@H](O)[C@H](O)C3O)C2)cc1 (stereo partly drawn) [FSA-512080b] ? ≤ 0.06 µg/mL

* * *

System: S. pneumoniae ATCC 49619
experiment-summary: MIC determination
Assay type: cell-based
conditions: Streptococcus pneumoniae, ATCC49619; S. pneumoniae ATCC 49619; read-out: MIC
Listed here are compounds together with their documented MIC.

# compound, tested-on, MIC
records = [
    ("CSC1O[C@H]([C@H](NC(=O)[C@H]2NC[C@@H]3C=C(c4ccc(C#N)cc4)CCO[C@@H]23)[C@H](C)Cl)C(O)[C@@H](O)[C@H]1O (stereo partly shown)", "S. pneumoniae ATCC 49619", "≤ 0.12 µg/mL"),
]

Recorded MIC of CSC1O[C@H]([C@H](NC(=O)[C@H]2NC[C@@H]3CCCO[C@H]32)[C@H](C)Cl)C(O)[C@@H](O)[C@H]1O (stereo partly shown) , please. 0.0625 µg/mL

Could you do the same for CSC1O[C@H]([C@H](NC(=O)[C@H]2NC[C@@H]3CC(F)(F)CCO[C@H]32)[C@H](C)Cl)C(O)[C@@H](O)[C@H]1O (stereo partly shown) , please? ≤ 0.06 µg/mL

Now try COc1ccc(C2CCO[C@@H]3[C@H](CN[C@@H]3C(=O)N[C@H]([C@H](C)Cl)[C@H]3OC(SC)[C@H](O)C(O)C3O)C2)cc1 (stereo partly shown) . ≤ 0.06 µg/mL

* * *

Record: MIC reported on S. aureus BAA 977 iErmA.

Please review the entries below; each comes with its answer.
# compound, MIC
data = [
    ("CSC1O[C@H]([C@H](NC(=O)[C@H]2NC[C@@H]3CC(N)CCO[C@H]32)[C@H](C)Cl)C(O)[C@@H](O)[C@H]1O (stereo partly drawn)", "> 64 µg/mL"),
    ("CSC1O[C@H]([C@H](NC(=O)[C@H]2NC[C@@H]3CNCCO[C@H]32)[C@H](C)Cl)C(O)C(O)[C@H]1O (stereo partly drawn)", "> 64 µg/mL"),
    ("C=CC1=CCO[C@@H]2[C@H](CN[C@@H]2C(=O)N[C@H]([C@H](C)Cl)[C@H]2OC(SC)[C@H](O)[C@H](O)C2O)C1 (stereo partly drawn)", "0.5 µg/mL"),
]

Quick one: MIC of CSC1O[C@H]([C@H](NC(=O)[C@H]2NC[C@@H]3C=C(c4cccc(F)c4)CCO[C@@H]23)[C@H](C)Cl)C(O)[C@@H](O)[C@H]1O (stereo partly drawn) ? 2 µg/mL

Now the compound COc1ccc([C@H]2CCO[C@@H]3[C@H](CN[C@@H]3C(=O)N[C@H]([C@H](C)Cl)[C@H]3OC(SC)[C@H](O)[C@H](O)C3O)C2)cc1 (stereo partly drawn) [FSA-512080b] 0.25 µg/mL

And then CSC1O[C@H]([C@H](NC(=O)[C@H]2NC[C@@H]3CC(F)(F)CCO[C@H]32)[C@H](C)Cl)C(O)[C@@H](O)[C@H]1O (stereo partly drawn) , what is it? 0.5 µg/mL

How about CSC1O[C@H]([C@H](NC(=O)[C@H]2NC[C@@H]3CN(Cc4ccnc(N)c4)CCO[C@H]32)[C@H](C)Cl)C(O)C(O)[C@H]1O (stereo partly drawn) ? 32 µg/mL

What do you have for CSC1O[C@H]([C@H](NC(=O)[C@H]2NC[C@@H]3C[C@H]4OC(C)(C)O[C@H]4CO[C@H]32)[C@H](C)Cl)C(O)[C@@H](O)[C@H]1O (stereo partly drawn) ? > 64 µg/mL

And for CSC1O[C@H]([C@H](NC(=O)[C@H]2NC[C@@H]3C=C(c4ccc(C(F)(F)F)cc4)CCO[C@@H]23)[C@H](C)Cl)C(O)[C@@H](O)[C@H]1O (stereo partly drawn) ? 0.25 µg/mL

Next: CSC1O[C@H]([C@H](NC(=O)[C@H]2NC[C@@H]3C[C@@H](CCc4cccc(F)c4)CCO[C@H]32)[C@H](C)Cl)C(O)[C@@H](O)[C@H]1O (stereo partly drawn) 0.12 µg/mL

# iterate: CSC1O[C@H]([C@H](NC(=O)[C@H]2NC[C@@H]3CC(c4ccc(C(F)(F)F)cc4)=CCO[C@H]32)[C@H](C)Cl)C(O)[C@@H](O)[C@H]1O (stereo partly drawn) 1 µg/mL

Follow-up item: CSC1O[C@H]([C@H](NC(=O)[C@H]2NC[C@@H]3C[C@@H](c4ccc(F)cc4)CCO[C@H]32)[C@H](C)Cl)C(O)[C@@H](O)[C@H]1O (stereo partly drawn) 0.25 µg/mL

* * *

System: S. pneumoniae ATCC 49619
experiment-summary: MIC determination
Assay type: cell-based
conditions: Streptococcus pneumoniae, ATCC49619; S. pneumoniae ATCC 49619; read-out: MIC
reported-metric: MIC

The following molecules have reported results that may help.
# molecule, tested-on, MIC
records = [
    ("CSC1O[C@H]([C@H](NC(=O)[C@H]2NC[C@@H]3CC(c4ccc(F)cc4)=CCO[C@H]32)[C@H](C)Cl)C(O)[C@@H](O)[C@H]1O (stereo partly shown)", "S. pneumoniae ATCC 49619", "≤ 0.06 µg/mL"),
    ("CSC1O[C@H]([C@H](NC(=O)[C@H]2NC[C@@H]3C[C@@H](c4ccc(F)cc4F)CCO[C@H]32)[C@H](C)Cl)C(O)[C@@H](O)[C@H]1O (stereo partly shown)", "S. pneumoniae ATCC 49619", "≤ 0.06 µg/mL"),
    ("CSC1O[C@H]([C@H](NC(=O)[C@H]2NC[C@@H]3CCCCO[C@H]32)[C@H](C)Cl)C(O)[C@@H](O)[C@H]1O (stereo partly shown)", "S. pneumoniae ATCC 49619", "< 0.0313 µg/mL"),
]

Sample CSC1O[C@H]([C@H](NC(=O)[C@H]2NC[C@@H]3C[C@@H](CCc4cccc(F)c4)CCO[C@H]32)[C@H](C)Cl)C(O)[C@@H](O)[C@H]1O (stereo partly shown) — what was its MIC? ≤ 0.06 µg/mL

* * *

Reported MIC values are given for each entry in this list.
Tested on: E. faecalis MMX 847 Macrolide-Resistant
experiment-summary: MIC determination
Format: cell-based
conditions: Enterococcus faecalis; E. faecalis MMX 847 Macrolide-Resistant (MacRes); read-out: MIC

# compound, MIC
records = [
    ("CSC1O[C@H]([C@H](NC(=O)[C@H]2NC[C@@H]3CC=CCO[C@H]32)[C@H](C)Sc2ccc(-c3cccnc3)cc2)C(O)[C@@H](O)[C@H]1O (stereo partly drawn) [FSA-213061]", "> 64 µg/mL"),
    ("CSC1O[C@H]([C@H](NC(=O)[C@H]2NC[C@@H]3CC(F)(F)CCO[C@H]32)[C@H](C)Cl)C(O)[C@@H](O)[C@H]1O (stereo partly drawn) [FSA-24036]", "> 64 µg/mL"),
]

Would you kindly share the measured MIC for CSC1O[C@H]([C@H](NC(=O)[C@@H]2[C@@H]3OCC=CC[C@H]3CN2C)[C@H](C)Sc2ccc(-c3cccnc3)cc2)C(O)[C@@H](O)[C@H]1O (stereo partly drawn) [FSA-213064] ? > 64 µg/mL

* * *

System: S. aureus BAA 977 iErmA
# reported MIC; entries follow
Return type: number; implicit unit µg/mL.

As a guide, the following entries are already answered.
# compound, reported-metric, value-measured
data = [
    ("CSC1O[C@H]([C@H](NC(=O)[C@H]2NC[C@@H]3C=C(c4ccc(F)cc4F)CCO[C@@H]23)[C@H](C)Cl)C(O)[C@@H](O)[C@H]1O (stereo partly shown)", "MIC", 1),
    ("CSC1O[C@H]([C@H](NC(=O)[C@H]2NC[C@@H]3C[C@@H](c4cc(F)cc(F)c4)CCO[C@H]32)[C@H](C)Cl)C(O)[C@@H](O)[C@H]1O (stereo partly shown)", "MIC", 0.25),
]

The record that follows has no MIC shown yet.
I'd like to know its MIC. The compound in question is CSC1O[C@H]([C@H](NC(=O)[C@H]2NC[C@@H]3CC(c4ccc(F)cc4)=CCO[C@H]32)[C@H](C)Cl)C(O)[C@@H](O)[C@H]1O (stereo partly shown) 1
